testSummary: Circular dichroism spectroscopy, percent α-helix
Type: physicochemical
cond: CD spectroscopy; Table 7
assayEndpoint: α-helix (%)
The response must be a number in % with no trailing unit.

Recorded results for 3 molecules are shown here.
molecule	resultUnit	reported
CC(=O)N[C@H](C(=O)N[C@@H](CO)C(=O)N[C@@H](Cc1ccccc1)C(=O)N[C@H]1CCCCNC(=S)SC[C@@H](C(=O)N[C@@H](CC(C)C)C(=O)N[C@@H](CC(C)C)C(=O)N[C@@H](CO)C(=O)N2CCC[C@H]2C(N)=O)NC(=O)[C@H](Cc2c[nH]c3ccccc23)NC(=O)[C@H](Cc2ccc(O)cc2)NC(=O)[C@H](CCC(=O)O)NC1=O)[C@@H](C)O [PMI(4,8)-a]	%	39.3
CC(=O)N[C@H](C(=O)N[C@H]1CSC(=S)NCCCC[C@@H](C(=O)N[C@@H](Cc2c[nH]c3ccccc23)C(=O)N[C@@H](CC(N)=O)C(=O)N[C@@H](CC(C)C)C(=O)N[C@@H](CC(C)C)C(=O)N[C@@H](CO)C(=O)N2CCC[C@H]2C(N)=O)NC(=O)[C@H](CCC(=O)O)NC(=O)[C@H](C)NC(=O)[C@H](Cc2ccccc2)NC1=O)[C@@H](C)O [PMI(2,6)-b]	%	4.81
CC(=O)N[C@H]1CSC(=S)NCCCC[C@@H](C(=O)N[C@@H](Cc2ccc(O)cc2)C(=O)N[C@@H](Cc2c[nH]c3ccccc23)C(=O)N[C@@H](CC(N)=O)C(=O)N[C@@H](CC(C)C)C(=O)N[C@@H](CC(C)C)C(=O)N[C@@H](CO)C(=O)N2CCC[C@H]2C(N)=O)NC(=O)[C@H](C)NC(=O)[C@H](Cc2ccccc2)NC(=O)[C@H](CO)NC1=O [PMI(1,5)-b]	%	8.38

Now consider the entry below.
Name the recorded α-helix (%) of the item CC(=O)N[C@H](C(=O)N[C@@H](CO)C(=O)N[C@@H](Cc1ccccc1)C(=O)N[C@H]1CSC(=S)NCCCC[C@@H](C(=O)N[C@@H](CC(C)C)C(=O)N[C@@H](CC(C)C)C(=O)N[C@@H](CO)C(=O)N2CCC[C@H]2C(N)=O)NC(=O)[C@H](Cc2c[nH]c3ccccc23)NC(=O)[C@H](Cc2ccc(O)cc2)NC(=O)[C@H](CCC(=O)O)NC1=O)[C@@H](C)O [PMI(4,8)-b] in your answer.
9.15

* * *

testSummary: Circular dichroism spectroscopy, percent α-helix
Format: physicochemical
cond: CD spectroscopy; Table 3
assayEndpoint: α-helix (%)
Return type: number; implicit unit %.

Previously resolved entries follow.
entrySmiles	α-helix (%)
CC(=O)N[C@H](C(=O)N[C@@H](CO)C(=O)N[C@@H](Cc1ccccc1)C(=O)N[C@H]1CCCCNC(=S)SC[C@@H](C(=O)N[C@@H](CC(C)C)C(=O)N[C@@H](CC(C)C)C(=O)N[C@@H](CO)C(=O)N[C@@H](CCCNC(=N)N)C(N)=O)NC(=O)[C@H](Cc2c[nH]c3ccccc23)NC(=O)[C@H](Cc2ccc(O)cc2)NC(=O)[C@H](CCC(N)=O)NC1=O)[C@@H](C)O	76
CC(=O)N[C@H](C(=O)N[C@@H](CO)C(=O)N[C@@H](Cc1ccccc1)C(=O)N[C@H]1CSC(=S)NCCCC[C@@H](C(=O)N[C@@H](CC(C)C)C(=O)N[C@@H](CC(C)C)C(=O)N[C@@H](CO)C(=O)N2CCC[C@H]2C(N)=O)NC(=O)[C@H](Cc2c[nH]c3ccccc23)NC(=O)[C@H](Cc2ccc(O)cc2)NC(=O)[C@H](CCC(=O)O)NC1=O)[C@@H](C)O	5.6

Alright, here's another compound for you.
# return recorded α-helix (%) for input `CC(=O)N[C@H](C(=O)N[C@@H](CO)C(=O)N[C@@H](Cc1ccccc1)C(=O)N[C@@H](C)C(=O)N[C@H]1CCCCNC(=S)SC[C@@H](C(=O)N[C@@H](CC(C)C)C(=O)N[C@@H](CO)C(=O)N2CCC[C@H]2C(N)=O)NC(=O)[C@H](CC(N)=O)NC(=O)[C@H](Cc2c[nH]c3ccccc23)NC(=O)[C@H](Cc2ccc(O)cc2)NC1=O)[C@@H](C)O`
0

The values you see were collected from patent US20220089638A1.
